target: human FSH receptor (Homo sapiens); assay: HTRF assay for measuring cAMP in cells, test for agonism (in the absence of hFSH); conditions: hFSHR clone 16 cells (CHO cells stably transfected with the human FSH receptor), 37° C. for 2 h, read-out: EC50 (FSH agonistic effect in the HTRF assay)
Sequence (P23945 18-695): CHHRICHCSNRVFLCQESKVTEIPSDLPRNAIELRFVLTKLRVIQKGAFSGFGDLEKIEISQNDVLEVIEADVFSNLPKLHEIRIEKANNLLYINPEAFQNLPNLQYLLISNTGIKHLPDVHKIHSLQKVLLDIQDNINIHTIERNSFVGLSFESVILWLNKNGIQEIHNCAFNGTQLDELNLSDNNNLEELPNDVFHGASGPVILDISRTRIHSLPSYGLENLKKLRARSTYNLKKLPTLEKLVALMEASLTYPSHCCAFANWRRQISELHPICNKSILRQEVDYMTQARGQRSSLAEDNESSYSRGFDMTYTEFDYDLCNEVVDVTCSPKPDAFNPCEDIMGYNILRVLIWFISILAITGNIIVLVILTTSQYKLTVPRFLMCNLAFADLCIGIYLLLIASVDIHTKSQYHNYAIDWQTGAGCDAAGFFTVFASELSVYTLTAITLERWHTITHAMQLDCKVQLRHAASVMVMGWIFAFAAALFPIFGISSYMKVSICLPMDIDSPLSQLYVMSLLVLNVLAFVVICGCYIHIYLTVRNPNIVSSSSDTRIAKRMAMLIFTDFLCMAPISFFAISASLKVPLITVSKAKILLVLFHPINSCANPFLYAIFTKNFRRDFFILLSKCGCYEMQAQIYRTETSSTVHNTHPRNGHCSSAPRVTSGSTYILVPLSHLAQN
# key: entry, value: EC50
API: value field is a number in µM; no unit string.

> print(dat)
                                smiles.code                      tested.system  unit.text  measurement
1  COc1ccc2nc(-c3cc(OC)c(OC)c(OC)c3)cc(C(=O)N[C@@H](CCO)Cc3ccc4ccccc4c3)c2c1  human FSH receptor (Homo sapiens)         µM            7

Task item: Notebook entry, human FSH receptor (Homo sapiens) assay: EC50 of `COc1ccc2nc(-c3cc(OC)c(OC)c(OC)c3)cc(C(=O)N[C@H](CCO)Cc3c[nH]c4ccccc34)c2c1` = ?
Reply: 6

* * *

biological target: human FSH receptor (Homo sapiens); test: HTRF assay for measuring cAMP in cells, test for agonism (in the absence of hFSH); details: hFSHR clone 16 cells (CHO cells stably transfected with the human FSH receptor), 37° C. for 2 h, read-out: EC50 (FSH agonistic effect in the HTRF assay)
pEC50: −log10 of the molar value.
pEC50 values, listed per item

Previously resolved entries follow.
> print(dat)
                                smiles.code  value.kind  measurement
1  COc1ccccc1C#Cc1ccc(OC(C)C)c(C(=O)N[C@@H](CCO)Cc2c[nH]c3ccccc23)c1       pEC50       < 5.00
2  CNC(=O)c1ccc(-c2ccc(OC(C)C)c(C(=O)N[C@@H](CCO)Cc3c[nH]c4ccccc34)c2)cc1Cl       pEC50       < 5.00

Task item: Please report the recorded pEC50 for `CCOc1ccc(-c2cccc(OC)c2)cc1C(=O)N[C@@H](CCO)Cc1c[nH]c2ccccc12` .
Reply: < 5.00
